Give IC50 for every item shown.
Just the number please, in µM, no unit attached.

Which IC50 is reported with 5'-nucleotidase (Homo sapiens) for this entry: NS(=O)(=O)c1ccc(N/N=C(/C(=O)/C=C/c2ccc(Cl)cc2Cl)N2CCOCC2)cc1 ?
3.32

Write down the reported IC50 of NS(=O)(=O)c1ccc(N/N=C(/C(=O)/C=C/c2ccccc2Br)N2CCOCC2)cc1 , test system: 5'-nucleotidase (Homo sapiens).
Sequence (P21589 whole entry): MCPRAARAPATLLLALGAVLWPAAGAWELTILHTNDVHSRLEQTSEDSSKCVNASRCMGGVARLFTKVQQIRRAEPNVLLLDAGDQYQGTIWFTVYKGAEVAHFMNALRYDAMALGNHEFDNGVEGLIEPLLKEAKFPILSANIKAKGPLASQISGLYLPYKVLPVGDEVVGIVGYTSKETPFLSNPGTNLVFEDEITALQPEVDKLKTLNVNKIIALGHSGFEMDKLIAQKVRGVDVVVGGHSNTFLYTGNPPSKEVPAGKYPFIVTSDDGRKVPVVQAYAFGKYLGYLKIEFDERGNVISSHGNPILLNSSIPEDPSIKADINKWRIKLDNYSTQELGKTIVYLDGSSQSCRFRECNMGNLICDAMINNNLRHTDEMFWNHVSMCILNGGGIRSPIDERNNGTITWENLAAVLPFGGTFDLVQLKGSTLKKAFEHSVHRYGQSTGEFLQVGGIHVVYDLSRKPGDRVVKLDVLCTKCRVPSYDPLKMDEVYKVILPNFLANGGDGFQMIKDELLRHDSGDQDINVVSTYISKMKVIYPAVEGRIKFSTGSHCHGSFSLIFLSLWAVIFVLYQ
2.92

Find the measured IC50: item COc1cc(/C=C/C(=O)/C(=N/Nc2ccc(S(N)(=O)=O)cc2)N2CCOCC2)cc(OC)c1OC , target or system 5'-nucleotidase (Homo sapiens).
1.75

What IC50 appears in the records for this compound with 5'-nucleotidase (Homo sapiens)? NS(=O)(=O)c1ccc(N/N=C(/C(=O)/C=C/c2ccccc2Cl)N2CCOCC2)cc1
11.6
